molecules and their reported percentage of [3H]GABA reuptake retained, mGAT3
Molecular target: mGAT3 (Mus musculus (Mouse))
Sequence (P31649 whole entry): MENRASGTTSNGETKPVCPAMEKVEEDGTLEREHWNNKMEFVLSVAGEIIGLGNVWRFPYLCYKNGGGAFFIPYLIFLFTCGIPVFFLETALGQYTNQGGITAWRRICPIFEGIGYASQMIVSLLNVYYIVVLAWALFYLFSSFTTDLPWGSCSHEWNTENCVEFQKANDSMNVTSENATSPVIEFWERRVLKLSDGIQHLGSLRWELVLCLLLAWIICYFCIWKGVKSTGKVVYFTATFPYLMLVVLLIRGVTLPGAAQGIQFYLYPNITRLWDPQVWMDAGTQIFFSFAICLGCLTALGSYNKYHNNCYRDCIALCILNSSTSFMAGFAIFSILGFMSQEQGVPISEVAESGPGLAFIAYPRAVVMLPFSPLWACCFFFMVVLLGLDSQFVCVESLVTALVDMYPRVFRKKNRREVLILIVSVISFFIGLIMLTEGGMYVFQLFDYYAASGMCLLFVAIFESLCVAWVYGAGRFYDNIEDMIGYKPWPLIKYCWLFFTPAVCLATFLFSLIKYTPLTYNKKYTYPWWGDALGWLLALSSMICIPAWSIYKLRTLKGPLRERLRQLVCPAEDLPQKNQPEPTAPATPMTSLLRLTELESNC
Test: [3H]GABA uptake inhibition, mGAT3 in HEK293 cells
Format: cell-based
Conditions: inhibitor at 100 μM; remaining reuptake
Please answer in the form of a number followed by its unit of measurement.

## Input Form entry - test system: mGAT3 (Mus musculus (Mouse)); read-out: percentage of [3H]GABA reuptake retained, mGAT3; molecule: C[C@H](NC[C@@H](O)[C@H](Cc1ccccc1)NC(=O)CC1c2ccccc2-c2ccccc21)c1ccccc1 [Compound 23]
## Output 59%

## Input Then what about the molecule COc1ccccc1CNC[C@H](O)[C@H](Cc1ccccc1)NC1c2ccccc2-c2ccccc21 [Compound 7] ?
## Output 65%

## Input Same lookup for COc1cccc(CNC[C@H](O)[C@H](Cc2ccccc2)NC2c3ccccc3-c3ccccc32)c1 [Compound 6] , please.
## Output 66%

## Input Again, but for C[C@H](NC[C@@H](O)[C@H](Cc1ccccc1)NC(=O)C1c2ccccc2-c2ccccc21)c1ccccc1 [Compound 22]
## Output 90%

---

Biological target: human recombinant beta-secretase (hBACE1) (Homo sapiens (Human))
Sequence (P56817 46-501): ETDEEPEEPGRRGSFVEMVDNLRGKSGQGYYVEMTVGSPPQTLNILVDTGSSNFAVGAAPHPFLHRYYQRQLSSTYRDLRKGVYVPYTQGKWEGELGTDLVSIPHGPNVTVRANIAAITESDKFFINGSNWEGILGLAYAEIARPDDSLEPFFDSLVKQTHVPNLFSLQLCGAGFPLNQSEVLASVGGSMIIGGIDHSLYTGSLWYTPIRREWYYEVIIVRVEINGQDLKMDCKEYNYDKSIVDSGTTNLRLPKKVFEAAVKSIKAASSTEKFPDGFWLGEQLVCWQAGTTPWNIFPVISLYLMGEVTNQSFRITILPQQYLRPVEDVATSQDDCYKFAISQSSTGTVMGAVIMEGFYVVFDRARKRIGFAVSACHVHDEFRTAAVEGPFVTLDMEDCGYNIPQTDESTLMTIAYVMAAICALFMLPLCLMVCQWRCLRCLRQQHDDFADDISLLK
Assay: FRET assay, inhibition of human recombinant beta-secretase
Conditions: read-out: hBACE-1 IC50
Result Type: log10 IC50 (log10 of the value in µM)
The figures below represent log10 of IC50, where IC50 is stated in µM.

Would you please look over these solved cases?
INSERT INTO assay_data (input_smiles, result_type, recorded_value) VALUES
  ('CC(C)(C)CNC[C@@H](O)[C@H](Cc1ccccc1)NC1c2ccccc2-c2ccccc21', 'log10 IC50', 0.93),
  ('C[C@H](NC[C@@H](O)[C@H](Cc1ccccc1)NC(=O)CC1c2ccccc2-c2ccccc21)c1ccccc1', 'log10 IC50', 0.87),
  ('COc1cccc(CNC[C@H](O)[C@H](Cc2ccccc2)NC2c3ccccc3-c3ccccc32)c1', 'log10 IC50', 0.35),
  ('CC(C)c1cccc(CNC[C@@H](O)[C@H](Cc2ccccc2)NC2c3ccccc3-c3ccccc32)c1', 'log10 IC50', 0.59),
  ('O[C@H](CNCc1ccccc1)[C@H](Cc1ccccc1)NC1c2ccccc2-c2ccccc21', 'log10 IC50', 1.00);

## Input Entry under review: O=C(CC1c2ccccc2-c2ccccc21)N[C@@H](Cc1ccccc1)[C@H](O)CNCc1cccc(C(F)(F)F)c1 . Reported log10 IC50?
## Output 0.33

## Input Do the same for O=C(CC1c2ccccc2-c2ccccc21)N[C@@H](Cc1ccccc1)[C@@H](O)CNCc1ccccc1 please
## Output 1.06

## Input Now consider C[C@H](NC[C@@H](O)[C@H](Cc1ccccc1)NC1c2ccccc2-c2ccccc21)c1ccccc1 and answer again.
## Output 1.30

## Input // repeat for CC(C)(C)c1cccc(CNC[C@@H](O)[C@H](Cc2ccccc2)NC2c3ccccc3-c3ccccc32)c1 and report
## Output 0.80

## Input What do we get for CC(C)(NC[C@@H](O)[C@H](Cc1ccccc1)NC(=O)C1c2ccccc2-c2ccccc21)c1ccccc1 ?
## Output 0.71

## Input What do you have for O=C(CC1c2ccccc2-c2ccccc21)N[C@@H](Cc1ccccc1)[C@H](O)CNCC1CC1 ?
## Output 1.09

## Input Query CC(C)(C)c1ccc(CNC[C@H](O)[C@H](Cc2ccccc2)NC(=O)C2c3ccccc3-c3ccccc32)cc1 next
## Output 0.05

## Input COc1ccccc1CNC[C@H](O)[C@H](Cc1ccccc1)NC1c2ccccc2-c2ccccc21 ?
## Output 0.86

## Input Now the same for CC(C)(C)c1ccc(CNC[C@H](O)[C@H](Cc2ccccc2)NC2c3ccccc3-c3ccccc32)cc1
## Output 0.82

## Input Item: CC(C)(NC[C@@H](O)[C@H](Cc1ccccc1)NC(=O)CC1c2ccccc2-c2ccccc21)c1ccccc1
## Output 0.70
